target: Muscarinic acetylcholine receptor M1 (Homo sapiens, UniProt P11229)
Sequence (P11229 whole entry): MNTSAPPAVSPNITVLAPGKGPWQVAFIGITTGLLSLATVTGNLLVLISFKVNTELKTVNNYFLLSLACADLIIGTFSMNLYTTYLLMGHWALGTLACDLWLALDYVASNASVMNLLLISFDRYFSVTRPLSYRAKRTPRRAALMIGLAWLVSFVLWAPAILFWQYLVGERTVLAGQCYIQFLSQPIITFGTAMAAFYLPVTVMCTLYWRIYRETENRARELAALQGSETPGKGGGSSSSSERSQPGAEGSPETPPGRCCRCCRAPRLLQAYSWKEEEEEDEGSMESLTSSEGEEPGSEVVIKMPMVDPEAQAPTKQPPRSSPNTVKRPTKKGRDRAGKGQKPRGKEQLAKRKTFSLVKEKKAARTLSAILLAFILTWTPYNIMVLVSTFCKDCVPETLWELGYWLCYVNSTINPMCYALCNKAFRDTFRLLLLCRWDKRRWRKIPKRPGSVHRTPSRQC
assayEndpoint: IC50

# IC50 measured on Muscarinic acetylcholine receptor M1 (Homo sapiens, UniProt P11229) for item CC(=O)Nc1c(F)cc(C(=O)N[C@H]2CC[C@H](O)CC2)cc1O[C@@H](C)c1ccccc1 = > 50.1 µM

###

Target chain: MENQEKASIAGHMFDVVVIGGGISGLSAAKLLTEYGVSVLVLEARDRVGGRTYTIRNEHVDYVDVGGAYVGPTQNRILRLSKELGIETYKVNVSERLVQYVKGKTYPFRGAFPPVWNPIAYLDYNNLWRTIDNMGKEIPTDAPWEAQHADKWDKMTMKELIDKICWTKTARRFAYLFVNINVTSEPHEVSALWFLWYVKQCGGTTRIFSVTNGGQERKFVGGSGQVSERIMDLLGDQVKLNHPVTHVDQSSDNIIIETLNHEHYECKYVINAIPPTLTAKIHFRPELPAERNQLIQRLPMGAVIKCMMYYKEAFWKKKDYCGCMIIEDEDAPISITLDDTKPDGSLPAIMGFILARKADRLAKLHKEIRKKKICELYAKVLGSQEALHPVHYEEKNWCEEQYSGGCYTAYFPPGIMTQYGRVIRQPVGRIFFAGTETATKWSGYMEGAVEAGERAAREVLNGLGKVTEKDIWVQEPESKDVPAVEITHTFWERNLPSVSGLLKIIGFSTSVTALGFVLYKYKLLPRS
assayEndpoint: IC50

Per the records, this compound ( CC(=O)Nc1c(F)cc(C(=O)N[C@H]2CC[C@H](O)CC2)cc1O[C@@H](C)c1ccccc1 [GSK046] ) has IC50 equal to > 100 µM
